assay: qHTS of pediatric cancer cell lines to identify multiple opportunities for drug repurposing: Primary screen for LAN-5 cells (AID 1347100); settings: LAN-5 neuroblastoma viability, CellTiter-Glo luminescence, 48 h; series mostly up to 46 µM
Inconclusive results are not listed. Active and inactive are the calls of the source. The call rests on the fitted dose curve; in most records, active means well fitted cell-killing curve with a large enough effect; inconclusive means small, poorly fitted or top-dose-only effect; inactive means no such curve, though single readings can be large or run the other way.
Classes used: YES (active), NO (inactive)

Compound	Group
C[C@H](NC(=O)C(C#N)=Cc1cccc(Br)n1)c1ccccc1	YES
NC(=O)c1ncn([C@@H]2O[C@H](CO)[C@@H](O)[C@@H]2O)c1O	NO
Cc1ccccc1C(=O)Nc1ccc(C(=O)N2CCCC(O)c3cc(Cl)ccc32)c(C)c1 (centres undefined)	NO
O=C1NC(=O)[C@@H](c2cn3c4c(cccc24)CCC3)[C@H]1c1c[nH]c2ccccc12	YES
COc1ccc(C=Cc2cc(OC)c(OC)c(OC)c2)cc1NC(=O)[C@H](N)CO	YES
COC(=O)C1C2CC3c4[nH]c5cc(OC)ccc5c4CCN3CC2CC(OC(=O)c2cc(OC)c(OC)c(OC)c2)C1OC (centres undefined)	NO
CCc1c(O)cc(O)c(C(=O)c2ccc(OCCN3CCOCC3)c(OC)c2)c1CC(=O)N(CCOC)CCOC	YES
CNC(=O)c1cccc(-c2ccc3c(N4CCOC[C@H]4C)nc(N4CCOC[C@H]4C)nc3n2)c1	YES
COc1cc(N2CCC(C(N)=O)CC2)ccc1Nc1nc(N)c(Cl)c(Nc2ccccc2S(=O)(=O)C(C)C)n1	YES

----------
assay: qHTS of pediatric cancer cell lines to identify multiple opportunities for drug repurposing: Confirmatory screen for U-2 OS cells (AID 1347122); settings: U-2 OS osteosarcoma cell viability; series mostly up to 45.9 µM; further: nearly all actives have a fitted effect of over 65% in size
Inconclusive results are not listed. Activity calls are given as the source filed them. The call rests on the fitted dose curve; in most records, active means well fitted cell-killing curve with a large enough effect; inconclusive means small, poorly fitted or top-dose-only effect; inactive means no such curve, though single readings can be large or run the other way.
Classes used: class 1 for active, class 0 for inactive

Compound	Group
CNC(=O)c1cccc(-c2ccc3c(N4CCOC[C@H]4C)nc(N4CCOC[C@H]4C)nc3n2)c1	class 1
O=C(C=Cc1ccc(CN(CCO)CCc2c[nH]c3ccccc23)cc1)NO	class 1
C[C@@]12C(=O)OC(=O)[C@@]1(C)C1CCC2O1	class 1
CCC(C(=O)O)C1CCC(C)C(C(C)C(O)C(C)C(=O)C(CC)C2OC3(C=CC(O)[C@@]4(CC[C@](C)(C5CC[C@@](O)(CC)C(C)O5)O4)O3)C(C)CC2C)O1 (some centres not stated)	class 1
COc1ccc2c(c1OC)C(=O)OC2[C@H]1c2c(cc3c(c2OC)OCO3)CCN1C (some centres not stated)	class 0
Cc1cnc(Nc2ccc(CN3CCOCC3)cc2)nc1Nc1cccc(S(=O)(=O)NC(C)(C)C)c1	class 1
C=CC(=O)Nc1cccc(Nc2nc(NC3CCC(N(C)C)CC3)nc3c2ncn3C(C)C)c1 (configuration not stated)	class 1
C[N+](C)([O-])CCNc1ccc(NCC[N+](C)(C)[O-])c2c1C(=O)c1c(O)ccc(O)c1C2=O	class 0
COC(=O)[C@@H]1[C@H]2C[C@@H]3c4[nH]c5ccccc5c4CCN3C[C@@H]2CC[C@@H]1O	class 0
Nc1ncn([C@@H]2O[C@H](CO)[C@@H](O)[C@@H]2O)c(=O)n1	class 1
Cc1ncc(-c2ccnc(Nc3ccc(S(C)(=O)=O)cc3)n2)n1C(C)C	class 1
NS(=O)(=O)OC[C@@H]1C[C@@H](n2ccc3c(N[C@H]4CCc5ccccc54)ncnc32)C[C@H]1O	class 0
CC(=O)O[C@H]1C[C@@H]2CC[C@H]3[C@H]4C[C@H]([N+]5(C)CCCCC5)[C@@H](OC(C)=O)[C@@]4(C)CC[C@@H]3[C@@]2(C)C[C@H]1N1CCCCC1	class 0
COC(=O)C1C2CC3c4[nH]c5cc(OC)ccc5c4CCN3CC2CC(OC(=O)c2cc(OC)c(OC)c(OC)c2)C1OC (configuration not stated)	class 1
CC(=O)NCC(=O)N1[C@H]2CC[C@H]1c1cc(Nc3ncc(C(F)(F)F)c(NC4CCC4)n3)ccc12	class 1
CCc1cnn2c(NCc3ccc[n+]([O-])c3)cc(N3CCCC[C@@H]3CCO)nc12	class 0
COc1cc2c(cc1OC)[C@@H]1C(=O)c3ccc4c(c3O[C@@H]1CO2)C=CC(C)(C)O4	class 1
